- procedure summary: qHTS assay to identify small molecule agonists of the estrogen receptor alpha (ER-alpha) signaling pathway in the presence of an antagonist - cell viability counter screen (AID 1259386);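 also: cells exposed to compounds for 22 h at 37 °C before the viability read; nearly all actives have a fitted effect of over 30% in size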
- conditions: VM7Luc4E2 viability, CellTiter-Fluor fluorescence, 22 h; series mostly up to 92.4 µM
Inconclusive results are not listed. Calls of active or inactive are those of the source. Calls follow the shape of the dose curve; as a rule, active = well fitted cell-killing curve with a large enough effect in the repeat runs; inconclusive = weak or mixed curves, or effect the other way; inactive = no such curve, though single readings can be large or run the other way.
readout: outcome

Answered examples (7):
>  <molecule>
Clc1cccnc1

>  <value observed>
inactive

$$$$
>  <molecule>
Oc1c(Br)cc(Br)c2cccnc12

>  <value observed>
inactive

$$$$
>  <molecule>
CN(C)CCCN1c2ccccc2Sc2ccc(C(F)(F)F)cc21

>  <value observed>
inactive

$$$$
>  <molecule>
CCCCCCCC(=O)OCC

>  <value observed>
inactive

$$$$
>  <molecule>
O=S(=O)(O)CCCN1CCOCC1

>  <value observed>
inactive

$$$$
>  <molecule>
O=c1cccc[nH]1

>  <value observed>
inactive

$$$$
>  <molecule>
Clc1ccc(C(Cn2ccnc2)OCc2c(Cl)cccc2Cl)c(Cl)c1 (stereo not drawn)

>  <value observed>
inactive

$$$$

Now take the following molecule into account.
Prompt: Look at this molecule and give its reported outcome. O=C(O)CCCCCCC(=O)O
Response: inactive

###

- Tested on: estrogen-related receptor alpha (ERRalpha) with PGC-1alpha coactivator, human
- procedure summary: qHTS assay to identify small molecule antagonists of the estrogen related receptor signaling pathway with the pleiotropic PPARgamma coactivator (PGC) (AID 1224821);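 also: lower luminescence signal means antagonism of PGC/ERR signalling; nearly all actives have a fitted effect of over 50% in size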
- conditions: ERR/PGC reporter cell line, luciferase, antagonist mode; series mostly up to 46.1 µM
Inconclusive results are not listed. The source made the active and inactive calls. The call rests on the fitted dose curve.

>  <compound>
CC(C)OC(=O)c1cc(C(=O)OC(C)C)cc([N+](=O)[O-])c1

>  <target entity>
estrogen-related receptor alpha (ERRalpha) with PGC-1alpha coactivator, human

>  <outcome>
inactive

$$$$
>  <compound>
CN1CCN(C2Cc3ccccc3Sc3ccc(Cl)cc32)CC1 (centres undefined)

>  <target entity>
estrogen-related receptor alpha (ERRalpha) with PGC-1alpha coactivator, human

>  <outcome>
inactive

$$$$
>  <compound>
COc1ccccc1OCCNCC(O)COc1cccc2[nH]c3ccccc3c12 (centres undefined)

>  <target entity>
estrogen-related receptor alpha (ERRalpha) with PGC-1alpha coactivator, human

>  <outcome>
inactive

$$$$
>  <compound>
O=C(NO)c1ccccc1

>  <target entity>
estrogen-related receptor alpha (ERRalpha) with PGC-1alpha coactivator, human

>  <outcome>
inactive

$$$$

###

- target entity: Vitamin D3 receptor (Homo sapiens) (UniProt P11473)
- Sequence (P11473 whole entry, looked up): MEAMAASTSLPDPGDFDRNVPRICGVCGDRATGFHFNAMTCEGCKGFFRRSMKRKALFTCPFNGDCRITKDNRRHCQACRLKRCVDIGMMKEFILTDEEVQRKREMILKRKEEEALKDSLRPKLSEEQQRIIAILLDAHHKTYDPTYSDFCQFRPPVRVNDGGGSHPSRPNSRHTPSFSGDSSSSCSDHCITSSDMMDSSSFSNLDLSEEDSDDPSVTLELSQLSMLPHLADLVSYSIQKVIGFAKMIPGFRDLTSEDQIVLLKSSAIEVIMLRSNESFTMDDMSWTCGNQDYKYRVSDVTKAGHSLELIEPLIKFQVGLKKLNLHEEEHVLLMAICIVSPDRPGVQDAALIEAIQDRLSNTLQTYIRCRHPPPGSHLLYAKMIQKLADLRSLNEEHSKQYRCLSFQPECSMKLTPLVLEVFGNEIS
- procedure summary: qHTS assay to identify small molecule agonists of the vitamin D receptor (VDR) signaling pathway (AID 743222)
- conditions: HEK293T VDR-UAS-bla, beta-lactamase FRET ratio, 16 h; series mostly up to 63.5 µM
Inconclusive results are not listed. Calls of active or inactive are those of the source. Calls follow the shape of the full dose curve.
readout: outcome

Answered examples (6):
>  <compound>
COC(=O)CC(C)CCC=C(C)C (configuration not stated)

>  <value observed>
inactive

$$$$
>  <compound>
c1cc(OCC2CO2)cc(OCC2CO2)c1 (configuration not stated)

>  <value observed>
inactive

$$$$
>  <compound>
CC(CN(C)C)CN1c2ccccc2CCc2ccccc21 (configuration not stated)

>  <value observed>
inactive

$$$$
>  <compound>
CC(C)(C)C1=CC(=O)C=C(C(C)(C)C)C1=O

>  <value observed>
inactive

$$$$
>  <compound>
CCO[Si](CCCSSSSCCC[Si](OCC)(OCC)OCC)(OCC)OCC

>  <value observed>
inactive

$$$$
>  <compound>
CCN(CC)CCNc1ccc(CO)c2sc3ccccc3c(=O)c12

>  <value observed>
inactive

$$$$

Now take the following compound into account.
Prompt: Look at this compound and give its reported outcome. CCC(C)(C)c1cc(O)c(C(C)(C)CC)cc1O
Response: inactive
